Entries and their inhibition
- assayed_system: DNA topoisomerase 2-alpha (Homo sapiens)
- assay_remarks: Inhibition of human DNA topoisomerase-2alpha-mediated relaxation of supercoiled pBR322 at 100 uM after 30 mins using ethidium bromide staining by agarose gel electrophoresis
All answers are understood in %, so give the number only.

// worked examples, inhibition included
INSERT INTO assay_data (sample_smiles, unit_annotation, reading) VALUES
  ('Oc1cccc(-c2cc(-c3ccc(Cl)cc3)nc(-c3ccccn3)c2)c1', '%', 59.4),
  ('Oc1ccc(-c2cc(-c3cccs3)nc(-c3ccccc3Cl)c2)cc1', '%', 78.3),
  ('Oc1ccc(-c2cc(-c3ccc(Cl)cc3)nc(-c3ccco3)c2)cc1', '%', 84.1),
  ('Oc1cccc(-c2cc(-c3ccccc3)nc(-c3ccccc3Cl)c2)c1', '%', 83),
  ('Oc1cccc(-c2cc(-c3ccccn3)nc(-c3ccccc3Cl)c2)c1', '%', 19.1),
  ('Oc1ccc(-c2cc(-c3ccccc3)nc(-c3ccccc3Cl)c2)cc1', '%', 77.5);

The reported inhibition value, DNA topoisomerase 2-alpha (Homo sapiens), for `Oc1ccc(-c2cc(-c3cccnc3)nc(-c3cccc(Cl)c3)c2)cc1` reads 46.9

Entry `Oc1cccc(-c2cc(-c3ccc(Cl)cc3)nc(-c3ccco3)c2)c1` ; assay system DNA topoisomerase 2-alpha (Homo sapiens); inhibition recorded at 63.8

Param item: `Oc1cccc(-c2cc(-c3ccncc3)nc(-c3cccc(Cl)c3)c2)c1` ; param system: DNA topoisomerase 2-alpha (Homo sapiens); output inhibition: 13.9

Known value: DNA topoisomerase 2-alpha (Homo sapiens) inhibition of the compound `Oc1ccc(-c2cc(-c3ccncc3)nc(-c3cccc(Cl)c3)c2)cc1` equals 0

Entry `Oc1cccc(-c2cc(-c3cccs3)nc(-c3ccccc3Cl)c2)c1` : inhibition on DNA topoisomerase 2-alpha (Homo sapiens) = 78.9

Measured inhibition (DNA topoisomerase 2-alpha (Homo sapiens)), entry `Oc1ccc(-c2cc(-c3ccncc3)nc(-c3ccccc3Cl)c2)cc1` : 0

Form: item `Oc1ccc(-c2cc(-c3ccc(Cl)cc3)nc(-c3ccccn3)c2)cc1` ; test system DNA topoisomerase 2-alpha (Homo sapiens); inhibition: 66.7

Entry `Oc1cccc(-c2cc(-c3ccncc3)nc(-c3ccc(Cl)cc3)c2)c1` : inhibition on DNA topoisomerase 2-alpha (Homo sapiens) = 51.7

DNA topoisomerase 2-alpha (Homo sapiens) inhibition of `Oc1ccc(-c2cc(-c3cccc(Cl)c3)nc(-c3cccs3)c2)cc1` is 72.4

Tested on DNA topoisomerase 2-alpha (Homo sapiens): `Oc1ccc(-c2cc(-c3ccsc3)nc(-c3cccc(Cl)c3)c2)cc1` . Observed inhibition: 83.7

Param item: `Oc1ccc(-c2cc(-c3ccc(Cl)cc3)nc(-c3cccnc3)c2)cc1` ; param system: DNA topoisomerase 2-alpha (Homo sapiens); output inhibition: 59.1

Recorded inhibition for `Oc1cccc(-c2cc(-c3ccsc3)nc(-c3ccccc3Cl)c2)c1` on DNA topoisomerase 2-alpha (Homo sapiens) was 77.1

Entry `Oc1ccc(-c2cc(-c3ccc(Cl)cc3)nc(-c3ccsc3)c2)cc1` , tested on DNA topoisomerase 2-alpha (Homo sapiens), has a reported inhibition of 83.6

# `Oc1cccc(-c2cc(-c3cccc(Cl)c3)nc(-c3ccco3)c2)c1` with DNA topoisomerase 2-alpha (Homo sapiens): inhibition is 70.1

----------
The following compounds are listed with their measured inhibition values.
- assayed_system: DNA topoisomerase 1 (Homo sapiens) (UniProt P11387)
- Sequence (P11387 whole entry): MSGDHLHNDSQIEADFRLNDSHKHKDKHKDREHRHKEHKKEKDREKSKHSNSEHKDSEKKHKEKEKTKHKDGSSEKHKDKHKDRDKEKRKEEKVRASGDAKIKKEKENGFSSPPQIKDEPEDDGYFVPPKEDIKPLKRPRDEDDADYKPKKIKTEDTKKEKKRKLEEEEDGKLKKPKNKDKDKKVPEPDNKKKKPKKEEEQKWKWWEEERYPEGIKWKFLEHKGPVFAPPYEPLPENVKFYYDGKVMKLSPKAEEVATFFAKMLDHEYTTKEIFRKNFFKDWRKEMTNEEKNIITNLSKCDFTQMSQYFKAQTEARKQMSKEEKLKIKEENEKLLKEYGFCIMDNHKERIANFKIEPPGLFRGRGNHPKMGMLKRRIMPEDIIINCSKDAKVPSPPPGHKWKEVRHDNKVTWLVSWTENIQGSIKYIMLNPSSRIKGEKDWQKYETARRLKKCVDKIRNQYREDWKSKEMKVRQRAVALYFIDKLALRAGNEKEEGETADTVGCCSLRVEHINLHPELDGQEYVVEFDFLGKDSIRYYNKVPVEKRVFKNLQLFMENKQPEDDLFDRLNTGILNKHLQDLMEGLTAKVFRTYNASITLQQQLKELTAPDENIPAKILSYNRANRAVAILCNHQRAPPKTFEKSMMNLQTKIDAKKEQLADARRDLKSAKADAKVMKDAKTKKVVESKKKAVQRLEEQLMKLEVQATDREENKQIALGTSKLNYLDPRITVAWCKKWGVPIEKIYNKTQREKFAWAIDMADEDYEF
- assay_remarks: Inhibition of recombinant human DNA topoisomerase-1-mediated relaxation of supercoiled pBR322 at 100 uM after 30 mins using ethidium bromide staining by agarose gel electrophoresis
Express your answer in %, writing the number without its unit.

Given item `Oc1cccc(-c2cc(-c3ccc(Cl)cc3)nc(-c3ccco3)c2)c1` , the value recorded as its inhibition is 27.1

Record `Oc1ccc(-c2cc(-c3cccnc3)nc(-c3ccccc3Cl)c2)cc1` . Reported inhibition: 0.9

Lab book: inhibition of `Oc1ccc(-c2cc(-c3cccs3)nc(-c3ccccc3Cl)c2)cc1` noted as 2.2

The recorded inhibition for `Oc1ccc(-c2cc(-c3ccc(Cl)cc3)nc(-c3ccccn3)c2)cc1` is 12.7
